TARGET: FGFR4-WT (Homo sapiens (Human))
Sequence (P22455 22-802): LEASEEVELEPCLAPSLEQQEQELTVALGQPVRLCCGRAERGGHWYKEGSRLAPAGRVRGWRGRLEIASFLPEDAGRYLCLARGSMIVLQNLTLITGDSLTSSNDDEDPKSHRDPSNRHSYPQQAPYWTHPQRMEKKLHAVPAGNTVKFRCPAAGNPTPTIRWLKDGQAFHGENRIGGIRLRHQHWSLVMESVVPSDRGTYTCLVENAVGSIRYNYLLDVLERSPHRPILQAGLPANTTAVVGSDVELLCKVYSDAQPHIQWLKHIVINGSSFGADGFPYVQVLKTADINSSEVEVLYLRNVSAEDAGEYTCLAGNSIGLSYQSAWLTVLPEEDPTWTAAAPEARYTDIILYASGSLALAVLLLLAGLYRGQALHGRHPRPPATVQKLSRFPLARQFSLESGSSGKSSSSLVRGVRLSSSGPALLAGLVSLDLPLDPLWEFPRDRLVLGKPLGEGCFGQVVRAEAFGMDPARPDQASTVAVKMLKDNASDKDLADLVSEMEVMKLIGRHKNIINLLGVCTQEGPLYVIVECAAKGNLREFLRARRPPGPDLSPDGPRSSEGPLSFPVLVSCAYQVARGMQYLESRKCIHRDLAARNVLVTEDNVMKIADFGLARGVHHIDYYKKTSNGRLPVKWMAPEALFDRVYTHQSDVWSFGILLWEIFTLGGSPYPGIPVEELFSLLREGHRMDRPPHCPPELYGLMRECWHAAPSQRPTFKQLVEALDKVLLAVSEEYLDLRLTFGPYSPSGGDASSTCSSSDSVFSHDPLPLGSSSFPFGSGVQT
ASSAY_REMARKS: Omnia assay for potency assessment against FGFR4 enzyme
Assay type: biochemical
pIC50: −log10 of the molar value.
ATTRIBUTE_MEASURED: pIC50

-- ask Bench note: what pIC50 did C=CC(=O)NC1CCCCC1Nc1ncc2c(n1)N(Cc1ccccc1)C(=O)N(c1c(Cl)c(OC)cc(OC)c1Cl)C2 (racemic) show?
-- reply > 7.00

* * *

TARGET: FGFR4 in MDA-MB-453 cells (Homo sapiens (Human), UniProt P22455, Y367C)
Sequence (P22455 22-802 Y367C): as the sequence (P22455 22-802) above, with Y346C counted along it
ASSAY_REMARKS: Target occupancy assay with biotinylated covalent probe I-127
ASSAY_CONTEXT: MDA-MB-453 lysate; 2 μM biotinylated probe I-127
ATTRIBUTE_MEASURED: EC50

# annotated cases, reported EC50 shown
C=CC(=O)Nc1cc(N2CCN(C(C)=O)CC2)ccc1Nc1ccc2c(c1)N(C)C(=O)N(c1cc(OC)cc(OC)c1)C2	101 to 500 nM
C=CC(=O)Nc1ccccc1Nc1ncc2c(n1)N(Cc1ccccc1)C(=O)N(c1c(Cl)c(OC)cc(OC)c1Cl)C2	< 100 nM
C=CC(=O)Nc1ccccc1Nc1ncc2c(n1)N(CCOC)C(=O)N(c1cc(OC)cc(OC)c1)C2	101 to 500 nM

-- ask I'm curious: which EC50 was measured for C=CC(=O)Nc1cc(N(C)CCOC)ccc1Nc1ncc2c(n1)N(Cc1ccccc1)C(=O)N(c1cc(OC)cc(OC)c1)C2 tested on FGFR4 in MDA-MB-453 cells (Homo sapiens (Human), UniProt P22455, Y367C)?
-- reply 101 to 500 nM

-- ask And C=CC(=O)Nc1ccccc1Nc1ncc2c(n1)N(Cc1ccc(F)cc1)C(=O)N(c1c(Cl)c(OC)cc(OC)c1Cl)C2 ?
-- reply 101 to 500 nM

-- ask And CCC(=O)Nc1ccccc1Nc1ncc2c(n1)N(Cc1ccccc1)C(=O)N(c1c(Cl)c(OC)cc(OC)c1Cl)C2 ?
-- reply > 1000 nM

-- ask And C=CC(=O)NC1CCCCC1Nc1ncc2c(n1)N(Cc1cccnc1)C(=O)N(c1c(Cl)c(OC)cc(OC)c1Cl)C2 (racemic) ?
-- reply 101 to 500 nM

-- ask And C=CC(=O)NC1COCC1Nc1ncc2c(n1)N(C)C(=O)N(c1c(Cl)c(OC)cc(OC)c1Cl)C2 (stereo not drawn) ?
-- reply < 100 nM

-- ask And C=CC(=O)Nc1ccccc1Nc1ncc2c(n1)N(Cc1cccc(NC(=O)CC)c1)C(=O)N(c1c(Cl)c(OC)cc(OC)c1Cl)C2 ?
-- reply < 100 nM
